System: A/H3N2 (A/HK/7/87)
test.details: microbe, parasite or virus in culture
Type: cell-based, influenza A virus
study.conditions: Influenza A virus, H3N2, MDCK, read-out: Antiviral EC50 A/H3N2 CPE

compound | EC50
CC1SC2(CCCCC2)N(NC(=O)c2ccc(C(C)(C)C)cc2)C1=O (centres unmarked) [Compound 2a] | > 100 µM
CC1CCCC2(C1)SCC(=O)N2NC(=O)c1ccc(C(C)(C)C)cc1 (centres unmarked) [Compound 1b] | > 100 µM
CC1SC2(CCC(C(C)(C)C)CC2)N(NC(=O)c2ccc(C(C)(C)C)cc2)C1=O (centres unmarked) [Compound 2f] | > 100 µM
CC(N)C12CC3CC(CC(C3)C1)C2 (centres unmarked) [Rimantadine, reference compound] | 0.7 µM
CCC(CC)O[C@@H]1C=C(C(=O)O)C[C@H](N)[C@H]1NC(C)=O [Oseltamivir carboxylate, reference compound] | 0.8 µM
CC1CCC2(CC1)SCC(=O)N2NC(=O)c1ccc(C(C)(C)C)cc1 (centres unmarked) [Compound 1c] | > 100 µM
CC(C)(C)c1ccc(C(=O)NN2C(=O)CSC23CCC(C(C)(C)C)CC3)cc1 (centres unmarked) [Compound 1f] | > 100 µM
CCC1CCC2(CC1)SC(C)C(=O)N2NC(=O)c1ccc(C(C)(C)C)cc1 (centres unmarked) [Compound 2d] | > 100 µM

----------
Property: pEC50; scope: individual molecules
Tested on: A/H3N2 (A/HK/7/87)
test.details: microbe, parasite or virus in culture
Format: cell-based, influenza A virus
study.conditions: Influenza A virus, H3N2, MDCK, read-out: Antiviral EC50 A/H3N2 CPE
pEC50: −log10 of the molar value.

molecule | pEC50
CC1CCC2(CC1)SC(C)C(=O)N2NC(=O)c1ccc(C(C)(C)C)cc1 (stereo not shown) [Compound 2c] | 5.62
NC(=O)c1ncn([C@@H]2O[C@H](CO)[C@@H](O)[C@H]2O)n1 [Ribavirin, reference compound] | 5.17
CCCC1CCC2(CC1)SCC(=O)N2NC(=O)c1ccc(C(C)(C)C)cc1 (stereo not shown) [Compound 1e] | < 4.00
CCCC1CCC2(CC1)SC(C)C(=O)N2NC(=O)c1ccc(C(C)(C)C)cc1 (stereo not shown) [Compound 2e] | < 4.00
CC1CCCC2(C1)SC(C)C(=O)N2NC(=O)c1ccc(C(C)(C)C)cc1 (stereo not shown) [Compound 2b] | < 4.00
CCC1CCC2(CC1)SCC(=O)N2NC(=O)c1ccc(C(C)(C)C)cc1 (stereo not shown) [Compound 1d] | < 4.00
CC(C)(C)c1ccc(C(=O)NN2C(=O)CSC23CCCCC3)cc1 [Compound 1a] | < 4.00

----------
Tested on: A/H1N1 (strain A/Ned/378/05)
test.details: CPE reduction assay in MDCK cells, influenza A/H1N1
Format: cell-based
study.conditions: Influenza A virus, read-out: Antiviral EC50 A/H1N1 CPE
pEC50: −log10 of the molar value.
Property: pEC50; scope: individual molecules
quantity: pEC50

molecule | quantity | value
CC(N)C12CC3CC(CC(C3)C1)C2 (stereo not drawn) [Rimantadine, reference compound] | pEC50 | 5.10
CCC1CCC2(CC1)SCC(=O)N2NC(=O)c1ccc(C(C)(C)C)cc1 (stereo not drawn) | pEC50 | < 4.00
NC(=O)c1ncn([C@@H]2O[C@H](CO)[C@@H](O)[C@H]2O)n1 [Ribavirin, reference compound] | pEC50 | 5.05
CC1CCC2(CC1)SC(C)C(=O)N2NC(=O)c1ccc(C(C)(C)C)cc1 (stereo not drawn) | pEC50 | < 4.00
CC1SC2(CCCCC2)N(NC(=O)c2ccc(C(C)(C)C)cc2)C1=O (stereo not drawn) | pEC50 | < 4.00
CC(C)(C)c1ccc(C(=O)NN2C(=O)CSC23CCCCC3)cc1 | pEC50 | < 4.00
CC1CCC2(CC1)SCC(=O)N2NC(=O)c1ccc(C(C)(C)C)cc1 (stereo not drawn) | pEC50 | < 4.00
CCCC1CCC2(CC1)SC(C)C(=O)N2NC(=O)c1ccc(C(C)(C)C)cc1 (stereo not drawn) | pEC50 | < 4.00
CC(C)(C)c1ccc(C(=O)NN2C(=O)CSC23CCC(C(C)(C)C)CC3)cc1 (stereo not drawn) | pEC50 | < 4.00
CC1CCCC2(C1)SCC(=O)N2NC(=O)c1ccc(C(C)(C)C)cc1 (stereo not drawn) | pEC50 | < 4.00
CC1CCCC2(C1)SC(C)C(=O)N2NC(=O)c1ccc(C(C)(C)C)cc1 (stereo not drawn) | pEC50 | < 4.00
CCCC1CCC2(CC1)SCC(=O)N2NC(=O)c1ccc(C(C)(C)C)cc1 (stereo not drawn) | pEC50 | < 4.00
CCC(CC)O[C@@H]1C=C(C(=O)O)C[C@H](N)[C@H]1NC(C)=O [Oseltamivir carboxylate, reference compound] | pEC50 | 6.30
CC1SC2(CCC(C(C)(C)C)CC2)N(NC(=O)c2ccc(C(C)(C)C)cc2)C1=O (stereo not drawn) | pEC50 | < 4.00
CCC1CCC2(CC1)SC(C)C(=O)N2NC(=O)c1ccc(C(C)(C)C)cc1 (stereo not drawn) | pEC50 | < 4.00
